Biological target: Glutamate receptor 1 (Rattus norvegicus) (UniProt P19490)
Sequence (P19490 whole entry, looked up): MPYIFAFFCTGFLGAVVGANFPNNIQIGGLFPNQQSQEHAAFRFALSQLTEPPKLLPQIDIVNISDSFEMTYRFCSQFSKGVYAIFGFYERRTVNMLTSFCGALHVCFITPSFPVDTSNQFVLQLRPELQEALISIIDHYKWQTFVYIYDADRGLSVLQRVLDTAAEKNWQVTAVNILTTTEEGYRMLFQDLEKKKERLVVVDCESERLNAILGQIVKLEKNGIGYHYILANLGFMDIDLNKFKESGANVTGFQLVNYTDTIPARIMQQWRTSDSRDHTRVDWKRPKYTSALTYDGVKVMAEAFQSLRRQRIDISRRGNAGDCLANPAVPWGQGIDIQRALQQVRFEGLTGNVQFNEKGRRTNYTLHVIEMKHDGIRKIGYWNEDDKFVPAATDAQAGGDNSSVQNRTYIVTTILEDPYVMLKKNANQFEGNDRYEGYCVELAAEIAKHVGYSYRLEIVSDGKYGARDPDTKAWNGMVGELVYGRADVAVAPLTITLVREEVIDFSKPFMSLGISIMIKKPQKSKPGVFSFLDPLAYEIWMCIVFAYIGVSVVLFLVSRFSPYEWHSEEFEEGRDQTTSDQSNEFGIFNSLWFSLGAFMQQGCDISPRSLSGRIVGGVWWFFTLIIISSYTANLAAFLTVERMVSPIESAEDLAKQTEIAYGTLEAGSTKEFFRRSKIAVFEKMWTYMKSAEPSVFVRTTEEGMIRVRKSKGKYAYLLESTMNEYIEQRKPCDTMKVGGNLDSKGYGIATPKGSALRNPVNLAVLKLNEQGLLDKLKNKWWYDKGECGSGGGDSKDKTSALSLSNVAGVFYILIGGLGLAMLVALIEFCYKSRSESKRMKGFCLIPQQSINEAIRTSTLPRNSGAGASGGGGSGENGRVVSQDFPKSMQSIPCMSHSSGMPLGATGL
Assay: The potency at recombinant rat AMPA-R was measured on GluR1 receptor expressed in Xenopus Laevis oocytes
quantity.measured: pEC50
On this scale, pEC50 is minus log10 of a concentration expressed in M (mol/L).

*Q* Entry N[C@@H](Cn1c2c(c(=O)[nH]c1=O)CCC2)C(=O)O : reported pEC50 = ?
*A* 4.60
